Data provenance: patent US20240366612A1

Quick reference: AC50 of the listed items.
tested on: HTT mRNA; assay: Splicing RT-qPCR assay, HTT canonical (CJ) and alternative (AJ) junction mRNA; assay type: cell-based; conditions: Homo sapiens, increase in AJ mRNA, A673 or K562 cells, 24 hours treatment
Counter-ions that a name gives are not always drawn.

Compound | AC50
Cc1cn2cc(-c3nc4cnn(C5CCNCC5)c(=O)c4s3)nc(C)c2n1 | > 10000 nM
Cc1cn2cc(-n3cnc4nc(N5CCN(C)CC5)sc4c3=O)cc(C(F)(F)F)c2n1 | > 10000 nM
Cc1cn2nc(-c3nc4sc(N5CCNCC5)nc4c(=O)[nH]3)cc2c(C)n1 | 100 to 1000 nM
Cc1cn2cc(-c3cc4ncn(C5CCN(C)CC5)c(=O)c4s3)cc(F)c2n1 | 100 to 1000 nM
Cn1cc2cc(-c3cc4ncn(C5CCNCC5)c(=O)c4s3)c(F)cc2n1 | 100 to 1000 nM
Cc1cn2cc(-c3cc4ncn(C5=CCNCC5)c(=O)c4s3)cc(F)c2n1 | 100 to 1000 nM
Cc1cc(-c2nn3c(=O)cc(N4CCN(C)CC4)nc3s2)cc2cn(C)nc12 | 1000 to 10000 nM
Cc1cn2cc(-c3cc4ncn([C@H]5CCNC[C@@H]5O)c(=O)c4s3)cc(F)c2n1 | 100 to 1000 nM
Cc1cn2cc(-c3cc4ncn([C@H]5CCNC[C@@H]5F)c(=O)c4s3)cc(F)c2n1 (relative stereo) | > 10000 nM
Cc1cn2nc(-c3nc4cnn(C5CCNCC5)c(=O)c4s3)cc(C)c2n1 | 100 to 1000 nM
Cc1cn2cc(-c3nc4ncn(C5CCNCC5)c(=O)c4s3)cc(F)c2n1 | < 100 nM
Cc1cn2cc(-n3ccc4cc(C5CCNCC5)sc4c3=O)cc(F)c2n1 | > 10000 nM
Cc1nc(-c2nc3ncn(C4CCNCC4)c(=O)c3s2)cc2cn(C)nc12 | 1000 to 10000 nM
Cc1cn2cc(-c3nn4c(=O)cc(N5CCN(C)CC5)nc4s3)cc(F)c2n1 | 1000 to 10000 nM
Cc1cn2cc(-n3cnc4nc(N5CCNCC5)sc4c3=O)cc(C(F)(F)F)c2n1 | > 10000 nM
COc1cc(-c2cc3ncn(C4CCNCC4)c(=O)c3s2)cnn1 | 1000 to 10000 nM
Cc1cn2cc(-n3cnc4nc(N(C)C5CC(C)(C)NC(C)(C)C5)sc4c3=O)cc(F)c2n1 [Compound 227, formate] | > 10000 nM

====

system: HTT mRNA; test: Splicing RT-qPCR assay, HTT canonical (CJ) and alternative (AJ) junction mRNA; format: cell-based; settings: Homo sapiens, decrease in CJ mRNA, A673 or K562 cells, 24 hours treatment
Structures can show the parent of a compound that is named as a salt.
Quick reference: IC50 of the listed items.
Readout: IC50

Compound | Measured Value
Cc1nc(-c2nc3ncn(C4CCNCC4)c(=O)c3s2)cc2cn(C)nc12 [Compound 251] | 1 to 10 µM
Cc1cn2nc(-c3cc4ncn(C5CCN(C)CC5)c(=O)c4s3)cc(C)c2n1 [Compound 239] | 1 to 10 µM
Cc1cn2cc(-c3cc4ncn(C5CCNCC5)c(=O)c4s3)cc(C)c2n1 [Compound 261] | 0.1 to 1 µM
Cc1cc(-c2cn3c(=O)cc(N4CCN(C)CC4)nc3s2)cc2cn(C)nc12 [Compound 183] | > 10 µM
Cc1cn2nc(-c3cc4ncn(C5CCNCC5)c(=O)c4s3)cc(C)c2n1 [Compound 238] | 0.1 to 1 µM
Cc1cn2cc(-c3cn4c(=O)cc(N5CCNC6(CC6)C5)nc4s3)cc(F)c2n1 [Compound 208] | 1 to 10 µM
Cc1cc(-c2nc3ncn(C4CCNCC4)c(=O)c3s2)cc2cn(C)nc12 [Compound 233] | < 0.1 µM
Cc1cn2cc(-c3nc4sc(C5CCNCC5)cc4c(=O)[nH]3)cc(F)c2n1 [Compound 250] | 0.1 to 1 µM
Cc1cn2cc(-n3cnc4nc(N5CCNCC5)sc4c3=O)cc(C(F)(F)F)c2n1 [Compound 229] | > 10 µM
Cc1cc(-c2cc3ccn(C4CCN(C)CC4)c(=O)c3s2)cc2cn(C)nc12 [Compound 807] | 0.1 to 1 µM
Cc1cn2cc(-c3cc4ncn([C@H]5CCN[C@@H](C)C5)c(=O)c4s3)cc(F)c2n1 (relative stereo) [Compound 278, hydrochloride] | 0.1 to 1 µM
Cc1cn2nc(-c3cc4ccn(C5CCNCC5)c(=O)c4s3)cc(C)c2n1 [Compound 806] | 0.1 to 1 µM
Cc1cn2nc(-c3cc(=O)n4cc(N5CCNC6(CC6)C5)sc4n3)cc(C)c2n1 [Compound 211] | 1 to 10 µM
